Target: P2X4 (Homo sapiens)
Assay: Assay A: human P2X4 receptor cell line, FLIPR calcium assay (Fluo-8, agonist Bz-ATP at EC80)
Type: cell-based
Parameters: host or cells: HEK 293 (recombinant, constitutively expressing; with mitochondrial photina in Assay B)
Settings: percentage of maximal inhibition; HEK human P2X4 cells, Fluo-8 FLIPR; read-out: human P2X4 Assay A avg Efficacy
REPORTED METRIC: Emax (%)

NS(=O)(=O)c1cc(NC(=O)Cc2ccccc2F)cc(F)c1Oc1cccc(Cl)c1	34
NS(=O)(=O)c1cc(NC(=O)Cc2ccc(Cl)cc2)ccc1Oc1cccc(Cl)c1	76
NS(=O)(=O)c1cc(NC(=O)Cc2ccc(F)cc2Cl)ccc1Oc1ccc(Cl)cc1	62
NS(=O)(=O)c1cc(NC(=O)Cc2ccccc2Cl)ccc1OCc1cccc(Cl)c1	82
[2H]c1c([2H])c([2H])c(Oc2ccc(NC(=O)Cc3ccccc3Cl)cc2S(N)(=O)=O)c(Cl)c1[2H]	95

a = NS(=O)(=O)c1cc(NC(=O)Cc2ccccc2Cl)ccc1Oc1ccc2c(c1)OCO2
b = NS(=O)(=O)c1cc(NC(=O)Cc2ccc(C(F)(F)F)cc2)ccc1OCc1ccccn1
Parameter check: reported Emax is higher for which label, a or b ? Your answer should be the label attached to the chosen record. a

---

Biological target: P2X4 (Homo sapiens)
Assay: Assay B: human P2X4 receptor cell line, mitochondrial photina luminescence (agonist Bz-ATP at EC50)
Type: cell-based
Design: host or cells: HEK 293 (recombinant, constitutively expressing; with mitochondrial photina in Assay B)
Details: HEK human P2X4 cell line, photina luminescence, agonist Bz-ATP at EC50, average; read-out: human P2X4 Assay B avg Efficacy
REPORTED METRIC: Emax (%)

a = NS(=O)(=O)c1cc(NC(=O)Cc2ccccc2Cl)ccc1Oc1cccc(Cl)n1 [Example 040]
b = NS(=O)(=O)c1cc(NC(=O)Cc2ccccc2Cl)ccc1Oc1ccc(Br)cc1 [Example 060]
Parameter check: reported Emax is higher for which label, a or b ? Your answer should be the label attached to the chosen record. a

---

Target: mouse P2X4 receptors (Mus musculus)
Construct: host or cells: HEK 293 (recombinant, constitutively expressing)
Sequence (Q9JJX6 whole entry): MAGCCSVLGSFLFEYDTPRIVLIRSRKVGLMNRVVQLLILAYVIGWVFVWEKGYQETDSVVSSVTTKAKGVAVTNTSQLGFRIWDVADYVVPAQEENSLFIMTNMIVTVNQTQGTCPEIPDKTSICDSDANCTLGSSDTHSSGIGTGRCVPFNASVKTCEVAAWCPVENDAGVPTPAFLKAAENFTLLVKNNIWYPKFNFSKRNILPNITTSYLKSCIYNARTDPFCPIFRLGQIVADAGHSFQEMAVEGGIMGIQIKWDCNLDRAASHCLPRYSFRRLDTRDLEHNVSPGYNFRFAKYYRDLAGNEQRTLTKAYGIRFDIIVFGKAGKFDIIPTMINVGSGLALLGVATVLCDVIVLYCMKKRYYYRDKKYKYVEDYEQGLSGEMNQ
Test: Assay B: mouse P2X4 receptor cell line, Fluo8 fluorescence FLIPR (agonist Bz-ATP at EC50)
Type: cell-based
Conditions: HEK mouse P2X4 cell line, agonist Bz-ATP at EC50, average
REPORTED METRIC: mouse P2X4 Assay B avg Efficacy (%)

N#Cc1ccc(COc2ccc(NC(=O)Cc3ccccc3Cl)cc2S(N)(=O)=O)cc1	41
NS(=O)(=O)c1cc(NC(=O)Cc2ccccc2Cl)ccc1Oc1ccc(F)cc1	44
NS(=O)(=O)c1cc(NC(=O)Cc2ccccc2Cl)ccc1OCCc1cccc(Cl)c1	25
N#Cc1cccc(Oc2ccc(NC(=O)Cc3ccccc3Cl)cc2S(N)(=O)=O)c1	45
NS(=O)(=O)c1cc(NC(=O)Cc2c(F)cccc2Cl)ccc1Oc1cccc(Cl)c1	43
COC(=O)c1ccccc1Oc1ccc(NC(=O)Cc2ccccc2Cl)cc1S(N)(=O)=O	25

I = NS(=O)(=O)c1cc(NC(=O)Cc2ccccc2Cl)ccc1Oc1ccccn1
II = NS(=O)(=O)c1cc(NC(=O)Cc2cccc(F)c2Cl)ccc1Oc1cccc(Cl)c1
Lab note: check whether I or II has the lower measured mouse P2X4 Assay B avg Efficacy. Your answer should be the label attached to the chosen record. I
(I: 31%, II: 69%)

---

Biological target: UniProt Q99571
Assay: Assay B: human P2X4 receptor cell line, mitochondrial photina luminescence (agonist Bz-ATP at EC50)
Format: cell-based
Set-up: host or cells: HEK 293 (recombinant, constitutively expressing; with mitochondrial photina in Assay B)
Conditions: HEK human P2X4 cell line, photina luminescence, agonist Bz-ATP at EC50, average
REPORTED METRIC: IC50 (nM)

CC(C)c1ccccc1CC(=O)Nc1ccc(Oc2cccc(Cl)c2)c(S(N)(=O)=O)c1	196

A = NS(=O)(=O)c1cc(NC(=O)Cc2ccc(C(F)(F)F)cc2)ccc1OCc1ccccn1
B = Cn1ccc(Oc2ccc(NC(=O)Cc3ccccc3Cl)cc2S(N)(=O)=O)n1
Lab note: check whether A or B has the lower measured IC50. Your answer should be the label attached to the chosen record. B
(B: 232 nM, A: 431 nM)

---

Molecular target: P2X4 (Homo sapiens)
Experiment: Assay A: human P2X4 receptor cell line, FLIPR calcium assay (Fluo-8, agonist Bz-ATP at EC80)
Assay type: cell-based
Design: host or cells: HEK 293 (recombinant, constitutively expressing; with mitochondrial photina in Assay B)
Conditions: percentage of maximal inhibition; HEK human P2X4 cells, Fluo-8 FLIPR; read-out: human P2X4 Assay A avg Efficacy
REPORTED METRIC: Emax (%)

NS(=O)(=O)c1cc(NC(=O)Cc2c(Cl)ccc(Br)c2Cl)ccc1Oc1cccc(Cl)c1	77
Cc1cccc(Oc2ccc(NC(=O)Cc3ccccc3Cl)cc2S(N)(=O)=O)c1	93
NS(=O)(=O)c1cc(NC(=O)Cc2ccccc2Cl)ccc1OCc1ccccn1	96
Cc1ccc(CC(=O)Nc2ccc(Oc3cccc(Cl)c3)c(S(N)(=O)=O)c2)cc1	69

1 = NS(=O)(=O)c1cc(NC(=O)Cc2ccccc2Cl)ccc1OCC1(Cl)CCOCC1
2 = CC1(C)CC(Oc2ccc(NC(=O)Cc3ccccc3Cl)cc2S(N)(=O)=O)CC(C)(C)O1
Lab note: check whether 1 or 2 has the lower measured Emax. Your answer should be the label attached to the chosen record. 2
(2: 37%, 1: 76%)

---

Biological target: P2X4 (Homo sapiens, UniProt Q99571)
Sequence (Q99571 whole entry): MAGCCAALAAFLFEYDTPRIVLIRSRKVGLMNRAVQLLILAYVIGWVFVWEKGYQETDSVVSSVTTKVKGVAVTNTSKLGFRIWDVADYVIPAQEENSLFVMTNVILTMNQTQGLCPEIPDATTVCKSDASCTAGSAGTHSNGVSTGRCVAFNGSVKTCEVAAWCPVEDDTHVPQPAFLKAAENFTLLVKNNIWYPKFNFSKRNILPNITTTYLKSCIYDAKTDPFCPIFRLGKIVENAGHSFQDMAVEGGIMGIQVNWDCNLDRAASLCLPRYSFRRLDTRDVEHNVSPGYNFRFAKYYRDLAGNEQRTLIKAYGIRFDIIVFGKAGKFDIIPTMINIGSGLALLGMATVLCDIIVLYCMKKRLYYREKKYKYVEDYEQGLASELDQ
Test: Assay B: human P2X4 receptor cell line, mitochondrial photina luminescence (agonist Bz-ATP at EC50)
Assay type: cell-based
Parameters: host or cells: HEK 293 (recombinant, constitutively expressing; with mitochondrial photina in Assay B)
Conditions: HEK human P2X4 cell line, photina luminescence, agonist Bz-ATP at EC50, average; read-out: human P2X4 Assay B avg Efficacy
REPORTED METRIC: Emax (%)

N#Cc1ccc(CC(=O)Nc2ccc(Oc3cccc(Cl)c3)c(S(N)(=O)=O)c2)cc1	61
COc1cccc(Oc2ccc(NC(=O)Cc3ccccc3)cc2S(N)(=O)=O)c1	82
Cc1cc(CC(=O)Nc2ccc(Oc3cccc(Cl)c3)c(S(N)(=O)=O)c2)c(Cl)cc1Br	61

Origin of values: patent US20180338980A1
